- TARGET: T1, human ErbB3 extracellular domain (ECD, residues 21-643) (Homo sapiens, UniProt P21860)
- T1 construct: ErbB3 (HER3) receptor, human, extracellular domain, residues 21-643; secreted with the Igκ leader of the pEE vector; Glycosylated, MW 75 kDa; also called ErbB3 ECD; HER3 extracellular domain; source: CHO-T-HC cells, transiently transfected, secreted, purified (IMAC on HisTrap, SEC on Superdex 200 pg)
- T1 sequence (P21860 21-643 R488S): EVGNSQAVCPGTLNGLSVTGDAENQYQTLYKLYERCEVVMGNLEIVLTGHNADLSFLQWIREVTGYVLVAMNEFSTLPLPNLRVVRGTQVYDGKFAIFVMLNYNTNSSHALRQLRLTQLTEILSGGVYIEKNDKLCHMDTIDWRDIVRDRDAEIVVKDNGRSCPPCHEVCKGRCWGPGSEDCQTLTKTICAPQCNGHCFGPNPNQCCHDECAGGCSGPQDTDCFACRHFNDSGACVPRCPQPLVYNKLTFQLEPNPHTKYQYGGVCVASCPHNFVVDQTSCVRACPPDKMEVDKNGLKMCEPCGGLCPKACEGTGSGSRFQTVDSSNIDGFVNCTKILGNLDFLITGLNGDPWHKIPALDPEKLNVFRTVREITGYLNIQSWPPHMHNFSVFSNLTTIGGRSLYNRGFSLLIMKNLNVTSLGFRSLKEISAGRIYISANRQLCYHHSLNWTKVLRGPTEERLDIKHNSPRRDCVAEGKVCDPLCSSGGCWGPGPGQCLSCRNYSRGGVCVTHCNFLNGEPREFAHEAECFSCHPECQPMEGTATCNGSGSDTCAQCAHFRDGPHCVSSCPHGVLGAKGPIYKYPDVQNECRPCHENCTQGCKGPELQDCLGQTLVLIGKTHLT
- ASSAY_METHOD_TEXT: SPR; ErbB3 ECD immobilised on a CM5 chip by amine coupling; Biacore T200, 37 °C; antibodies in HBS (10 mM HEPES pH 7.4, 150 mM NaCl) with 50 µg/mL BSA; sensograms fitted globally by a 1:1 model at three concentrations near KD; geometric means of two experiments
- STATED_CONDITIONS: both partners purified
Listed next: entries and their corresponding kon.

BINDER	U	kon
BCD090-M2 (VHH, llama VHH from a phage display library; the product left after TEV cleavage; no PDB id is printed; also called anti-ErbB3 single-domain antibody BCD090-M2; source: E. coli SHuffle T7 express, cytoplasmic, purified (IMAC, TEV cleavage, negative IMAC, ion exchange); not shown: His tag, N-terminal, cleaved; SUMO, N-terminal, cleaved) VHH: QVQLVQSGGGLVQAGGSLRLSCAFSGRTFSMYTMGWFRQAPGKEREFVAANRGRGLSPDIADSVNGRFTISRDNAKNTLYLQMDSLKPEDTAVYYCAADLQYGSSWPQRSSAEYDYWGQGTTVTVSS	M⁻¹ s⁻¹	220000
BCD090-M456 (VHH, llama VHH from a phage display library; the product left after TEV cleavage; Lacks the Cys22-Cys92 disulfide bond (cysteines reduced); CDR H3 of 23 residues; also called anti-ErbB3 single-domain antibody BCD090-M456; source: E. coli SHuffle T7 express or BL21(DE3), cytoplasmic, purified (IMAC, TEV cleavage, negative IMAC, ion exchange); not shown: His tag, N-terminal, cleaved; SUMO, N-terminal, …) VHH: QVQLVQSGGGLVQSGGSLKLSCVASGGPFSTYLMGWFRQAPGKEREFVTAISRSGLNTYYADSVKGRFTISRDNAKNTVYLQMHSLKPEDTAVYHCAARRGGTNSGSYYFDRPAVSDEYDLWGQGTLVTVSS	M⁻¹ s⁻¹	720
pelB-BCD090-P1-His5 (VHH, as the VHH of m1 (BCD090-P1), with the uncleaved pelB leader and a histidine tag; also called BCD090-P1 purified from the periplasm; periplasmically expressed BCD090-P1; source: E. coli, periplasmic expression (pET22b), purified; not shown: pelB leader (uncleaved), N-terminal, kept; His5, C-terminal, kept) VHH: EVQLVQSGGGLVQPGGSLRLSCAASGRTSSKYAMGWFRQAPGKGTEFVATISWSDGSTYYADSVEGRFTISRDNAKNTVYLQMNSLKPEDTAVYYCAAAVDVLAGTFEYEYDYWGQGTLVTVSS	M⁻¹ s⁻¹	870000
BCD090-P1 (VHH, llama VHH from a phage display library; the product left after TEV cleavage; Monomer by SEC; One disulfide bond Cys22-Cys92; also called anti-ErbB3 single-domain antibody BCD090-P1; source: E. coli SHuffle T7 express or BL21(DE3), cytoplasmic, purified (IMAC, TEV cleavage, negative IMAC, ion exchange); not shown: His tag, N-terminal, cleaved; SUMO, N-terminal, cleaved) VHH: EVQLVQSGGGLVQPGGSLRLSCAASGRTSSKYAMGWFRQAPGKGTEFVATISWSDGSTYYADSVEGRFTISRDNAKNTVYLQMNSLKPEDTAVYYCAAAVDVLAGTFEYEYDYWGQGTLVTVSS	M⁻¹ s⁻¹	1.9e+06

All values here come from paper PMC8467012.
